Test system: NCI-H460
Assay: Growth inhibition of human NCI-H460 cells by sulforhodamine B assay
Assay type: functional
Conditions: read-out: LC50
Observable: LC50 (µM)
Respond with the bare value in µM.

CC(C)=CC(=O)O[C@@H]1CC(C)(C)C[C@H]2C3=CC[C@@H]4[C@@]5(C)CCC(=O)C(C)(C)[C@@H]5CC[C@@]4(C)[C@]3(C)CC[C@@]12C(=O)O ... 85.5

Shift focus to the following entry.
-- ask Reported LC50 for `CC1(C)C[C@@H](O)[C@]2(C(=O)O)CC[C@]3(C)C(=CC[C@@H]4[C@@]5(C)C/C(=C\C=C\c6ccccc6)C(=O)C(C)(C)[C@@H]5CC[C@]43C)[C@@H]2C1` : what is it?
-- reply 44.1

Recorded values, source ChEMBL document CHEMBL2413072.
